For each entry below, report its Herbicidal rate (%) Scirpus juncoides value.
System: Scirpus juncoides
METHOD NOTES: Test Example 2: herbicidal effect test by treatment during growing period in paddy rice cultivation (seven days after seeding)
Assay type: in vivo
EXPERIMENTAL PARAMETERS: 120 g/10a active ingredient, assessed 14 days after treatment, dry weight vs untreated area
Entry rule: numbers only, all in %.

Give the measured Herbicidal rate (%) Scirpus juncoides of CCC(C)n1oc(=O)c(Cc2ccccc2N(C(=O)Cc2ccccc2)S(=O)(=O)C(F)(F)F)c1C (centres unmarked) [Compound 1-504] . 90

Recorded Herbicidal rate (%) Scirpus juncoides of CCC(=O)N(c1ccccc1Cc1c(C)n(C(C)COC)oc1=O)S(=O)(=O)C(F)(F)F (centres unmarked) [Compound 1-319] , please. 90

Would you kindly share the measured Herbicidal rate (%) Scirpus juncoides for CCC(C)n1oc(=O)c(Cc2ccccc2N(S(C)(=O)=O)S(=O)(=O)C(F)(F)F)c1C (centres unmarked) [Compound 1-890] ? 90

Reported Herbicidal rate (%) Scirpus juncoides for COCC(C)n1oc(=O)c(Cc2ccccc2N(C(=O)OCc2ccccc2)S(=O)(=O)C(F)(F)F)c1C (centres unmarked) [Compound 1-790] : what is it? 90

I have this compound here, Cc1c(Cc2ccccc2N(S(=O)(=O)C(F)(F)F)S(=O)(=O)C(F)(F)F)c(=O)on1CCCc1ccccc1 [Compound 1-1048] , and I need its recorded Herbicidal rate (%) Scirpus juncoides. 40

Item under review: Cc1c(Cc2ccccc2N(C(=O)Cc2ccccc2)S(=O)(=O)C(F)(F)F)c(=O)on1C(C)(C)C [Compound 1-503] . Reported Herbicidal rate (%) Scirpus juncoides? 90

Herbicidal rate (%) Scirpus juncoides lookup needed for CCC(CC)Cn1oc(=O)c(Cc2ccccc2N(S(=O)(=O)C(F)(F)F)S(=O)(=O)C(F)(F)F)c1C [Compound 1-973] , thanks. 90

What does the data say about its Herbicidal rate (%) Scirpus juncoides? Entry: Cc1c(Cc2ccccc2NS(=O)(=O)C(F)(F)F)c(=O)on1Cc1cccc(F)c1 [Compound 1-182] 70

Quick check: Herbicidal rate (%) Scirpus juncoides of CCC(C)n1oc(=O)c(Cc2ccccc2N(C(=O)OCC2CCCO2)S(=O)(=O)C(F)(F)F)c1C (centres unmarked) [Compound 1-829] ? 90

Fill in: Herbicidal rate (%) Scirpus juncoides of CCCC(C)n1oc(=O)c(Cc2ccccc2N(S(=O)(=O)C(F)(F)F)S(=O)(=O)C(F)(F)F)c1C (centres unmarked) [Compound 1-970] is ___ 90

Which measured Herbicidal rate (%) Scirpus juncoides value corresponds to CCC(CC)n1oc(=O)c(Cc2ccccc2N(C(C)=O)S(=O)(=O)C(F)(F)F)c1C [Compound 1-295] ? 90

Recorded Herbicidal rate (%) Scirpus juncoides of CCCC(C)n1oc(=O)c(Cc2ccccc2NS(=O)(=O)C(F)(F)F)c1C (centres unmarked) [Compound 1-109] , please. 90

I have this compound here, COCC(C)n1oc(=O)c(Cc2ccccc2N(C(=O)Oc2ccccc2)S(=O)(=O)C(F)(F)F)c1C (centres unmarked) [Compound 1-765] , and I need its recorded Herbicidal rate (%) Scirpus juncoides. 90

I have this compound here, CCCC(C)n1oc(=O)c(Cc2ccccc2N(C(=O)C(C)C)S(=O)(=O)C(F)(F)F)c1C (centres unmarked) [Compound 1-334] , and I need its recorded Herbicidal rate (%) Scirpus juncoides. 90

Entry Cc1c(Cc2ccccc2N(C(=O)CC(C)C)S(=O)(=O)C(F)(F)F)c(=O)on1CC(C)C [Compound 1-354] : reported Herbicidal rate (%) Scirpus juncoides = ? 90

# Herbicidal rate (%) Scirpus juncoides lookup, item Cc1c(Cc2ccccc2N(C(=O)C(C)C)S(=O)(=O)C(F)(F)F)c(=O)on1C(C)(C)C [Compound 1-329] 90

# lookup: Herbicidal rate (%) Scirpus juncoides of CSCCCn1oc(=O)c(Cc2ccccc2N(S(=O)(=O)C(F)(F)F)S(=O)(=O)C(F)(F)F)c1C [Compound 1-1003] 90

Which value of Herbicidal rate (%) Scirpus juncoides has been reported for Cc1c(Cc2c(Cl)cccc2N(S(=O)(=O)C(F)(F)F)S(=O)(=O)C(F)(F)F)c(=O)on1C(C)C [Compound 1-47] in the records? 70

# query: Herbicidal rate (%) Scirpus juncoides of entry Cc1c(Cc2ccccc2N(S(=O)(=O)C(F)(F)F)S(=O)(=O)C(F)(F)F)c(=O)on1Cc1ccccc1 [Compound 1-1011] 90

Consider the compound shown here: C#CCn1oc(=O)c(Cc2ccccc2N(S(=O)(=O)C(F)(F)F)S(=O)(=O)C(F)(F)F)c1C [Compound 1-988] What is its recorded Herbicidal rate (%) Scirpus juncoides? 90

// lookup Herbicidal rate (%) Scirpus juncoides for Cc1c(Cc2ccccc2N(C(=O)C2CC2)S(=O)(=O)C(F)(F)F)c(=O)on1C(C)c1ccccc1 (centres unmarked) [Compound 1-416] 90

Query (compound): Cc1c(Cc2ccccc2N(S(=O)(=O)C(F)(F)F)S(=O)(=O)C(F)(F)F)c(=O)on1C(C)c1ccc(OC(F)(F)F)cc1 (centres unmarked) [Compound 1-1036] ; field requested: Herbicidal rate (%) Scirpus juncoides 60

Herbicidal rate (%) Scirpus juncoides for CSCCn1oc(=O)c(Cc2ccccc2N(C(=O)CC(C)C)S(=O)(=O)C(F)(F)F)c1C [Compound 1-358] ? 90
